Molecular target: ΔdhPPase (Desulfitobacterium hafniense, UniProt B8FP42, DEL425-544)
Sequence (B8FP42 1-423, stated change not applied): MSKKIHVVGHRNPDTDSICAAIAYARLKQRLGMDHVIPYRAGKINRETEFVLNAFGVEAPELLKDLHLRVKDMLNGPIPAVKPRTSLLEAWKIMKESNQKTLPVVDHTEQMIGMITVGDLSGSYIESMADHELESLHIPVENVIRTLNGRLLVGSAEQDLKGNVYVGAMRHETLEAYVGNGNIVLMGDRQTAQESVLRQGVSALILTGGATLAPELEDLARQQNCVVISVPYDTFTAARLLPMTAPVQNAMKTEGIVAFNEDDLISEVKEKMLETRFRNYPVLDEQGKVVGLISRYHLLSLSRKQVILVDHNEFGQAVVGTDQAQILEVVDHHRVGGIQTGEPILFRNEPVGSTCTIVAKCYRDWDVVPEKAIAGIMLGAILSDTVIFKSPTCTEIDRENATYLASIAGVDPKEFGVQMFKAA
Assay: isothermal titration calorimetry, single-site model
Details: read-out: KN
OUTCOME MEASURE: Kd

### Prompt What measured Kd goes with Nc1ncnc2c1ncn2[C@@H]1O[C@H](COP(=O)(O)OP(=O)(O)OP(=O)(O)OP(=O)(O)OC[C@H]2O[C@@H](n3cnc4c(N)ncnc43)[C@H](O)[C@@H]2O)[C@@H](O)[C@H]1O [Ap4A] ?
### Response < 10 nM
